- TESTED SYSTEM: UniProt P08908
- Sequence (P08908 whole entry, species assumed): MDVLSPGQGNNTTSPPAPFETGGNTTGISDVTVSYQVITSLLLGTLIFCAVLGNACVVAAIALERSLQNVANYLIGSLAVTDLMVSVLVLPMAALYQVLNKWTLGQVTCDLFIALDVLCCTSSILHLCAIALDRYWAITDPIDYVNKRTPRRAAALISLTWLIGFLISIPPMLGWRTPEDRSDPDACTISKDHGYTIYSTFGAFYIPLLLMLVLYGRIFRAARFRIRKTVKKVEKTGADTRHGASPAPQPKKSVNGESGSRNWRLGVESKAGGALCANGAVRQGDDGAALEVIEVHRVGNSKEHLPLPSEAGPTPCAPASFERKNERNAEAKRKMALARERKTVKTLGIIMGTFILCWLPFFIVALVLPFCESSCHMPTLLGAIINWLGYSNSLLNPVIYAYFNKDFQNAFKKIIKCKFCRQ
Structures can show the parent of a compound that is named as a salt.
MEASURE NAME: Ki (nM)
One number for each entry, in nM.

Exercise: Would you kindly share the measured Ki for Clc1ccc(C2=CCN(CCCCn3cncn3)CC2)cc1 [Example 2, hydrochloride] ?
Solution: 600
